read-out: Interleukin 17A (IL17A), IL17A (gene 3605); experiment: BSK_BT_xIL17A: BioMAP Diversity Plus: BT Assay for Interleukin 17A (IL17A) Biomarker Activity (AID 2284229); details: primary human B cells with PBMC
Activity calls are given as the source filed them. Rule for the calls: active = hit-call score of the fitted dose curve at least 0.9, where 1 is the maximum; inactive = score below 0.9.
Reply using exactly one outcome from y for active, n for inactive

// known answers, use as guide
>>> cat("CCc1c(Br)c(Br)c(Br)c(Br)c1Br")
"n"
>>> cat("FC(F)(F)C(F)(F)C(F)(F)C(F)(F)C(F)(F)C(F)(F)C(F)(F)Br")
"n"
>>> cat("FC(F)(F)C(F)(F)C(F)(F)C(F)(F)C(F)(F)C(F)(F)C(F)(F)C(F)(F)CCS")
"n"
>>> cat("C=CC(F)(F)C(F)(F)C(F)(F)C(F)(F)C(F)(F)C(F)(F)C(F)(F)C(F)(F)C=C")
"n"
>>> cat("O=C(O)C(F)(F)C(F)(F)C(F)(F)C(F)(F)C(F)(F)C(F)(F)C(F)(F)C(F)(F)C(F)(F)C(F)(F)C(F)(F)C(F)(F)F")
"n"
>>> cat("CCN(CC)c1ccc2c(C)cc(=O)oc2c1")
"n"
>>> cat("CCc1ccc(C(c2ccc(CC)cc2)C(Cl)Cl)cc1")
"y"
>>> cat("CC(C)(C)C(=O)CC(=O)C(F)(F)C(F)(F)C(F)(F)F")
"n"

Query :: Answer briefly: the call reported for O=C(Cl)C(F)(F)C(F)(F)C(F)(F)C(F)(F)C(F)(F)C(F)(F)C(F)(F)C(F)(F)F in this assay.
Result :: n

Query :: Answer briefly: the call reported for CCCCOCCOCCOC(=O)CCCCC(=O)OCCOCCOCCCC in this assay.
Result :: n

Query :: Answer briefly: the call reported for FC(F)(F)C(F)(F)CNCC(F)(F)C(F)(F)F in this assay.
Result :: n

Query :: Answer briefly: the call reported for O=S(=O)(O)C(F)(F)C(F)(F)C(F)(F)C(F)(F)C(F)(F)C(F)(F)C(F)(F)F in this assay.
Result :: n

* * *

assay: ATG_MRE_CIS: Attagene CIS-FACTORIAL HepG2 Assay for human Metal Responsive Element (MRE) (AID 2282954); details: HepG2 MRE cis-reporter transcription, Attagene multiplex; actives raise or lower the signal
Calls of active or inactive are those of the source. Rule for the calls: active = hit-call score of the fitted dose curve at least 0.9, where 1 is the maximum; inactive = score below 0.9.
Reply using exactly one outcome from label 1 (active), label 0 (inactive)

Query :: Answer briefly: the call reported for CCCCCCS in this assay.
Result :: label 0

Query :: Answer briefly: the call reported for O=S(=O)(OCCOC(F)(F)F)C(F)(F)F in this assay.
Result :: label 0

Query :: Answer briefly: the call reported for O=S(=O)(O)c1ccc2ccccc2c1 in this assay.
Result :: label 0

* * *

molecular target: human Retinoic Acid Receptor beta (RARb), RARB (gene 5915) (UniProt P10826); assay: ATG_RARb_TRANS: Attagene TRANS-FACTORIAL HepG2 Assay for human Retinoic Acid Receptor beta (AID 2283004)
Sequence (P10826 whole entry, looked up): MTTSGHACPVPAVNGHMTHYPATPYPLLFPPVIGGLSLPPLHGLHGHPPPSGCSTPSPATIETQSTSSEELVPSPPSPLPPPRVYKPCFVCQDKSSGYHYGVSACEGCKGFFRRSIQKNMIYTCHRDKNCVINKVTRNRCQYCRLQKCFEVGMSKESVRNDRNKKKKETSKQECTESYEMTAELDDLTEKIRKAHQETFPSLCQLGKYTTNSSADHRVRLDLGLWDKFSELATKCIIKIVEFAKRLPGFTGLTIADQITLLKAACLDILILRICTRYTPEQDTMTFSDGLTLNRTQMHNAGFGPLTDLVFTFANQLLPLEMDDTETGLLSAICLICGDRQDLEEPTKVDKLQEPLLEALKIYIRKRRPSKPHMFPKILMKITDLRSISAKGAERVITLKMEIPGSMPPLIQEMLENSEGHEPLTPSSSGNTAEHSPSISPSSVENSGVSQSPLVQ
Inconclusive results are not listed. The source made the active and inactive calls. Rule for the calls: active = hit-call score of the fitted dose curve at least 0.9, where 1 is the maximum; inconclusive = response in the unintended direction; inactive = score below 0.9.
property: AC50

Consider the following illustrative entries.
>>> value("CC(C)(C)c1ccc(OC2CCCCC2O)cc1 (stereo unspecified)")
"inactive"
>>> value("CC(C)OC(=O)c1ccccc1C(=O)OC(C)C")
"inactive"
>>> value("C#C[C@]1(O)CC[C@H]2[C@@H]3CCc4cc(OC)ccc4[C@H]3CC[C@@]21C")
"inactive"
>>> value("CO[Si](OC)(c1ccccc1)c1ccccc1")
"inactive"
>>> value("Nc1cc(Cl)c(N)c(Cl)c1")
"26.5 µM (active)"

As a next step, examine the compound that follows.
The reported AC50 of the compound CC(C)(C)C(=O)CC(=O)C(F)(F)C(F)(F)C(F)(F)F was inactive
